Catalogue of molecules with associated normalised response
tested on: HCC1937; assay: normalised response (% of control), CellTox Green; higher = less cell death (100 = DMSO, 0 = benzethonium chloride kill control); settings: incubation time: 72 h
Just the number please, in %, no unit attached.

Consider the reported normalised response for these molecules:
Short answer please: normalised response, HCC1937, entry COc1cccc2cc(-c3nc([C@H]4CC[C@H](C(=O)O)CC4)n4ncnc(N)c34)[nH]c12 [OSI-027] (100 nM)
90.9

Notebook entry, HCC1937 assay: normalised response of C[C@]1(c2nc3c(C(N)=O)cccc3[nH]2)CCCN1 [Veliparib] (100 nM) = ?
87.8

Request: normalised response, test system HCC1937, entry S=c1[nH]cnc2nc[nH]c12 [Mercaptopurine] (10000 nM)
89.1

Let us examine a further case.
What value of normalised response on HCC1937 does CC[C@]1(O)C[C@@H]2CN(CCc3c([nH]c4ccccc34)[C@@](C(=O)OC)(c3cc4c(cc3OC)N(C)[C@H]3[C@@](O)(C(=O)OC)[C@H](OC(C)=O)[C@]5(CC)C=CCN6CC[C@]43[C@@H]65)C2)C1 [Vinblastine] (1000 nM) have?
92.1

// provenance: the supplement of paper PMC4862054
